tested on: MS2 coat protein; assay: apparent KD of MS2 coat protein; designed switch direction (-1 OFF switch, 1 ON switch): -1; higher = weaker reporter binding; conditions: input ligand: FMN 200 uM
parameter-measured: apparent KD of MS2 coat protein
Note: state the figure and append the unit.

Please review the following examples before continuing.
{"sequence-record": "GCUAGGAGUGUGAGGAUAUGCUGAUCCUUGGAUCAGCAGAAGGCACAUGAGGAUCACCCAUGUGAAGACCUAGC [Mat - Exclusion 4 - JL Mod - D2] (Eterna round: R97, puzzle: Brourd's mod of Exclusion 4)", "target-or-test-system": "MS2 coat protein", "parameter-measured": "apparent KD of MS2 coat protein", "observed-measurement": "169 nM"}
{"sequence-record": "AAAGUUCGAGGAUAUCUACUUAGCUACAUGAGGAUCACCCAUGUUAUCCUCCCGCUGGGAAGAGAAGGCGGUUAAA [Xeonceso] (Eterna round: R96, puzzle: Exclusion 5)", "target-or-test-system": "MS2 coat protein", "parameter-measured": "apparent KD of MS2 coat protein", "observed-measurement": "138 nM"}
{"sequence-record": "AAUUAAACAAGCAGAUCCCACAUGAGGAUCACCCAUGUGCUCGUCUUAUAAGGUACUGUGACGAGAGUCACGGUACC [Mat - Sensor, turn-off var - Eli Mod - D64] (Eterna round: R97, puzzle: Sensor, turn-off variant 1)", "target-or-test-system": "MS2 coat protein", "parameter-measured": "apparent KD of MS2 coat protein", "observed-measurement": "66.4 nM"}
{"sequence-record": "CUGCUGGAGCUUUGCUUUGGUCGUACAUGAGGAUCACCCAUGUAGGAUAUGGUAGGAUUUGCUUGCUAGAAGGAUAGAGUGGUC [salish99_ExNG3_r04_610] (Eterna round: R96, puzzle: Exclusion NG 3)", "target-or-test-system": "MS2 coat protein", "parameter-measured": "apparent KD of MS2 coat protein", "observed-measurement": "92.7 nM"}

Reported apparent KD of MS2 coat protein ( AAGAAGGCCGUAGGAUAUACAGCAAGAACGCGAGUAGAAGGACGAUACAUGAGGAUCACCCAUGUACGUGGGUAGUGCUCGUGC [Soatceri] (Eterna round: R96, puzzle: Exclusion NG 1) ) = 26 nM

Reported apparent KD of MS2 coat protein ( ACAUGAGGAUCACCCAUGUGAAAACAAUGGCUGACUUUGAGAUAGGAUAUAUGUGCAUAUCAAACAUAGAAGGGUCAUUACUGG [Deportation 90 - Jieux - Exclusion NG 3] (Eterna round: R96, puzzle: Exclusion NG 3) ) = 41.4 nM

Reported apparent KD of MS2 coat protein ( GCGCCAUCGUGAGAUGGCGUAUAUACAUGAGGAUCACCCAUGUAGGAUAUCGAUUGCUUUGCAGUCGAGAAGGGCGUGAUAAUU [JL ENG3 3.69] (Eterna round: R96, puzzle: Exclusion NG 3) ) = 109 nM

Reported apparent KD of MS2 coat protein ( AAAUAGCUAGAGGAUAUCGGAUAGGAUUUACUACGAGAAGGUUAGACAUGAGGAUCACCCAUGUUGUGUUGGGA [EX6 #19] (Eterna round: R97, puzzle: Exclusion 6) ) = 59.6 nM
